- Target of assay: T1, recombinant human TfR1 (transferrin receptor protein 1) (human, UniProt P02786 89-760)
- T1 construct: Recombinant protein in SPR and ELISA; they were assigned to this molecule; also called hTfR1; huTfR1
- T1 sequence (P02786 89-760 limits assumed): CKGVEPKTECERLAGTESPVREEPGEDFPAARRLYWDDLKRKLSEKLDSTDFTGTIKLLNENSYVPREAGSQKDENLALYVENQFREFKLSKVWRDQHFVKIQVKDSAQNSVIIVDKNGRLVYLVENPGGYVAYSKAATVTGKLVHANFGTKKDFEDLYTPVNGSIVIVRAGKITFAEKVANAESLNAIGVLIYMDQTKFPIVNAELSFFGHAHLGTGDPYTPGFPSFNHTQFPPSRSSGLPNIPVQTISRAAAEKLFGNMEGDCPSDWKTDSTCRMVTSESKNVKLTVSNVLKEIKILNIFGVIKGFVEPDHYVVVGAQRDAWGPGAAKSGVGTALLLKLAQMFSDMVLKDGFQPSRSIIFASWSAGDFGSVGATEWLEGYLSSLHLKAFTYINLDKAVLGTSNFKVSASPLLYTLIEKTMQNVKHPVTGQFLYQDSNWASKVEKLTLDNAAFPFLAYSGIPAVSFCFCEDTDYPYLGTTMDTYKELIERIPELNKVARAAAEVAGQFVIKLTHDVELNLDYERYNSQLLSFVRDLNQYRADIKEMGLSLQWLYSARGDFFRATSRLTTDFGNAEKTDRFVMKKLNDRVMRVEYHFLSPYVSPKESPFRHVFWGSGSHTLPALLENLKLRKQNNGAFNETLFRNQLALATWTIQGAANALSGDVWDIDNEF
- Assay text: Table 14, unconjugated Fab, d0; method not named (values equal ELISA row of Table 13)
Recorded metric: Binding affinity (nM)
Report only the number, with the unit nM understood.

humanized anti-TfR Fab 3M12 VH3/Vκ2 (Fab, V domains shown, also called 3M12 (VH3/Vk2)) VH: QVQLQESGPGLVKPSQTLSLTCSVTGYSITSGYYWNWIRQPPGKGLEWMGYITFDGANNYNPSLKNRVSISRDTSKNQFSLKLSSVTAEDTATYYCTRSSYDYDVLDYWGQGTTVTVSS VL: DIQMTQSPSSLSASVGDRVTITCRASQDISNFLNWYQQKPGQPVKLLIYYTSRLHSGVPSRFSGSGSGTDFTLTISSLQPEDFATYFCQQGHTLPYTFGQGTKLEIKR: 0.8

Problem: Which Binding affinity is reported for this binder? humanized anti-TfR Fab 5H12 VH5 (C33Y)/Vκ3 (Fab, V domains shown, also called 5H12 (VH5-C33Y/Vk3)) VH: QVQLVQSGAEVKKPGASVKVSCKASGYSFTDYYINWVRQAPGQGLEWMGWIYPGSGNTRYSERFKGRVTITRDTSASTAYMELSSLRSEDTAVYYCAREDYYPYHGMDYWGQGTLVTVSS VL: DIVLTQSPDSLAVSLGERATINCRASESVDGYDNSFMHWYQQKPGQPPKLLIFRASNLESGVPDRFSGSGSRTDFTLTISSLQAEDVAVYYCQQSSEDPWTFGQGTKLEIKR
Result: 6.3

Problem: Which Binding affinity is reported for this binder? humanized anti-TfR Fab 3A4 VH3 (N54S)/Vκ4 (Fab, V domains shown, also called 3A4 (VH3-N54S/Vk4)) VH: EVQLVQSGSELKKPGASVKVSCTASGFNIKDDYMYWVRQPPGKGLEWIGWIDPESGDTEYASKFQDRVTVTADTSTNTAYMELSSLRSEDTAVYYCTLWLRRGLDYWGQGTLVTVSS VL: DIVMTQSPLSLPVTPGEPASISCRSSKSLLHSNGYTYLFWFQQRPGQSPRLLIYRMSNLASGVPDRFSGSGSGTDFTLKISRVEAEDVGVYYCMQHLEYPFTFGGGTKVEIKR
Result: 1.6
